Reference source for all entries: ChEMBL document CHEMBL1140176

- Test system: Human immunodeficiency virus 1
- protocol.notes: Antiviral activity against HIV1 in human CEM cells
- Type: functional, organism-based
- condition.label: Human immunodeficiency virus 1, CCRF-CEM
quantity: EC50 (µM)
Use µM as the unit, but write only the number.

# example entries with known answers
- molecule: "COC(=O)CNC(=O)CCc1ccc2c(c1)COP(=O)(OC[C@@H]1C=C[C@H](n3cc(C)c(=O)[nH]c3=O)O1)O2 (stereo partly specified)"
  tested.target: "Human immunodeficiency virus 1"
  EC50 / µM: 2
- molecule: "Cc1cn([C@H]2C=C[C@@H](COP3(=O)OCc4cc(CCC(=O)N5CCC[C@H]5C(=O)OCc5ccccc5)ccc4O3)O2)c(=O)[nH]c1=O (stereo partly specified)"
  tested.target: "Human immunodeficiency virus 1"
  EC50 / µM: 0.7
- molecule: "COC(=O)[C@H](C)NC(=O)CCc1ccc2c(c1)COP(=O)(OC[C@@H]1C=C[C@H](n3cc(C)c(=O)[nH]c3=O)O1)O2 (stereo partly specified)"
  tested.target: "Human immunodeficiency virus 1"
  EC50 / µM: 0.8

Request: Would you kindly share the measured EC50 for COC(=O)[C@@H]1CCCN1C(=O)CCc1ccc2c(c1)COP(=O)(OC[C@@H]1C=C[C@H](n3cc(C)c(=O)[nH]c3=O)O1)O2 (stereo partly specified) ?
Response: 1.3

Request: Do the same for Cc1cn([C@H]2C=C[C@@H](CO)O2)c(=O)[nH]c1=O please
Response: 0.48

Request: Do the same for Cc1cn([C@H]2C=C[C@@H](COP3(=O)OCc4cc(CCC(=O)NCC(=O)OCc5ccccc5)ccc4O3)O2)c(=O)[nH]c1=O (stereo partly specified) please
Response: 0.31

Request: Do the same for Cc1cn([C@H]2C=C[C@@H](COP3(=O)OCc4cc(CCC(=O)N[C@@H](C)C(=O)O)ccc4O3)O2)c(=O)[nH]c1=O (stereo partly specified) please
Response: 0.5

Request: Do the same for COC(=O)[C@@H](C)NC(=O)CCc1ccc2c(c1)COP(=O)(OC[C@@H]1C=C[C@H](n3cc(C)c(=O)[nH]c3=O)O1)O2 (stereo partly specified) please
Response: 0.4

Request: Do the same for Cc1cn([C@H]2C=C[C@@H](COP3(=O)OCc4cc(CCC(=O)O)ccc4O3)O2)c(=O)[nH]c1=O (stereo partly specified) please
Response: 0.14

Request: Do the same for Cc1cn([C@H]2C=C[C@@H](COP3(=O)OCc4cc(CCC(=O)N[C@@H](C)C(=O)OC(C)(C)C)ccc4O3)O2)c(=O)[nH]c1=O (stereo partly specified) please
Response: 0.3

Request: Do the same for Cc1cn([C@H]2C=C[C@@H](COP3(=O)OCc4cc(CCC(=O)N[C@@H](C)C(=O)OCc5ccccc5)ccc4O3)O2)c(=O)[nH]c1=O (stereo in doubt; form 3) please
Response: 0.3

====

Measured half-life, listed per entry.
- protocol.notes: Stability in 25 mM phosphate buffer assessed as hydrolysis half life at pH 7.3
- Format: physicochemical
- condition.label: phosphate buffer
Use h as the unit, but write only the number.

# example entries with known answers
- compound: "COC(=O)[C@@H]1CCCN1C(=O)CCc1ccc2c(c1)COP(=O)(OC[C@@H]1C=C[C@H](n3cc(C)c(=O)[nH]c3=O)O1)O2 (stereo partly drawn)"
  half-life [h]: 7.9
- compound: "Cc1cn([C@H]2C=C[C@@H](COP3(=O)OCc4cc(CCC(=O)N[C@@H](C)C(=O)OC(C)(C)C)ccc4O3)O2)c(=O)[nH]c1=O (stereo partly drawn)"
  half-life [h]: 5.7

Turning now to a further compound:
Request: Would you kindly share the measured half-life for Cc1cn([C@H]2C=C[C@@H](COP3(=O)OCc4cc(CCC(=O)NCC(=O)OCc5ccccc5)ccc4O3)O2)c(=O)[nH]c1=O (stereo partly drawn) ?
Response: 6.2

====

- Tested on: Human immunodeficiency virus 2
- protocol.notes: Antiviral activity against HIV2 ROD in human CEM cells
- Type: functional, organism-based, CCRF-CEM
- condition.label: ccrf-cem
quantity: EC50 (µM)
Use µM as the unit, but write only the number.

Request: Would you kindly share the measured EC50 for Cc1cn([C@H]2C=C[C@@H](COP3(=O)OCc4cc(CCC(=O)N[C@@H](C)C(=O)OCc5ccccc5)ccc4O3)O2)c(=O)[nH]c1=O (stereo in doubt; form 1) ?
Response: 0.3

====

- protocol.notes: Cytotoxicity against human CEM cells
- Assay type: cell-based, CCRF-CEM
- condition.label: CEM cells
Measured CC50, listed per entry.
Use µM as the unit, but write only the number.

# example entries with known answers
- compound: "Cc1cn([C@H]2C=C[C@@H](COP3(=O)OCc4cc(CCC(=O)N[C@@H](C)C(=O)OC(C)(C)C)ccc4O3)O2)c(=O)[nH]c1=O (stereo partly drawn)"
  quantity: "CC50"
  number: 53
- compound: "COC(=O)[C@H](C)NC(=O)CCc1ccc2c(c1)COP(=O)(OC[C@@H]1C=C[C@H](n3cc(C)c(=O)[nH]c3=O)O1)O2 (stereo partly drawn)"
  quantity: "CC50"
  number: 152

Request: Would you kindly share the measured CC50 for COC(=O)[C@@H]1CCCN1C(=O)CCc1ccc2c(c1)COP(=O)(OC[C@@H]1C=C[C@H](n3cc(C)c(=O)[nH]c3=O)O1)O2 (stereo partly drawn) ?
Response: 182

====

Measured half-life, listed per entry.
- protocol.notes: Stability in 25 mM phosphate buffer assessed as hydrolysis half life at pH 7.3
- Assay type: physicochemical
- condition.label: phosphate buffer
Use h as the unit, but write only the number.

# example entries with known answers
- compound: "COC(=O)CNC(=O)CCc1ccc2c(c1)COP(=O)(OC[C@@H]1C=C[C@H](n3cc(C)c(=O)[nH]c3=O)O1)O2 (some centres not stated)"
  quantity: "half-life"
  number: 6.5
- compound: "COC(=O)[C@@H](C)NC(=O)CCc1ccc2c(c1)COP(=O)(OC[C@@H]1C=C[C@H](n3cc(C)c(=O)[nH]c3=O)O1)O2 (some centres not stated)"
  quantity: "half-life"
  number: 5
- compound: "Cc1cn([C@H]2C=C[C@@H](COP3(=O)OCc4cc(CCC(=O)N[C@@H](C)C(=O)OCc5ccccc5)ccc4O3)O2)c(=O)[nH]c1=O (stereo in doubt; form 3)"
  quantity: "half-life"
  number: 6.4
- compound: "Cc1cn([C@H]2C=C[C@@H](COP3(=O)OCc4cc(CCC(=O)N[C@@H](C)C(=O)O)ccc4O3)O2)c(=O)[nH]c1=O (some centres not stated)"
  quantity: "half-life"
  number: 12
- compound: "Cc1cn([C@H]2C=C[C@@H](COP3(=O)OCc4cc(CCC(=O)N5CCC[C@H]5C(=O)OCc5ccccc5)ccc4O3)O2)c(=O)[nH]c1=O (some centres not stated)"
  quantity: "half-life"
  number: 6.1

Request: Would you kindly share the measured half-life for COC(=O)[C@H](C)NC(=O)CCc1ccc2c(c1)COP(=O)(OC[C@@H]1C=C[C@H](n3cc(C)c(=O)[nH]c3=O)O1)O2 (some centres not stated) ?
Response: 6.4

Request: Do the same for Cc1cn([C@H]2C=C[C@@H](COP3(=O)OCc4cc(CCC(=O)O)ccc4O3)O2)c(=O)[nH]c1=O (some centres not stated) please
Response: 13
